# Test Target: Recombinant human PDE4B (Homo sapiens)
# Construct: amino acid 305-end; GST (N)
# Sequence (Q07343 305-736 limits assumed): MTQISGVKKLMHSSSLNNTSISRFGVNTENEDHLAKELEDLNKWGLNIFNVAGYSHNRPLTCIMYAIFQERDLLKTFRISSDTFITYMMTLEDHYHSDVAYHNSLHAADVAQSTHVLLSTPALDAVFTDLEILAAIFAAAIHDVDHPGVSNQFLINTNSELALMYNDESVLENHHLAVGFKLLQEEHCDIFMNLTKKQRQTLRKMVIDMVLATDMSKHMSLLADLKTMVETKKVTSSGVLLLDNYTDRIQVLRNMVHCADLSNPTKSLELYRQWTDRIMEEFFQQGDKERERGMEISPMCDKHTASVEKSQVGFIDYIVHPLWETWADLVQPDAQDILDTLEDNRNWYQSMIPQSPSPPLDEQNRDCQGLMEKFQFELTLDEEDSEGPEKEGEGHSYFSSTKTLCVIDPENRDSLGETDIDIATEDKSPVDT
# Experiment Summary: Inhibitory activity of the compounds against PDE 4B (fluorescence polarization, Transcreener AMP2/GMP2)
# Particulars: recombinant human PDE4B (aa 305-end, GST tag); 1 μM cAMP; 1 hour at room temperature
// reported IC50 per item
Measured Attribute: IC50 (nM)

Compound	Measured Attribute	Readout Units	Experimental Result
CCOc1cc(C(CS(C)(=O)=O)n2c(=O)oc3cc(Br)ccc32)ccc1OC (stereo not shown) [WX077]	IC50	nM	46.8
CCOc1cc([C@@H](CS(C)(=O)=O)n2c(=O)[nH]c3cc(-c4ccccc4C)ccc32)ccc1OC [WX014]	IC50	nM	0.606
CCOc1cc([C@@H](CS(C)(=O)=O)n2c(=O)n(CC(F)F)c3cc(Cl)ccc32)ccc1OC [WX036]	IC50	nM	9.12

###

# Test Target: Recombinant human PDE4B (Homo sapiens)
# Construct: amino acid 305-end; GST (N); made in house; host or cells: Sf9 insect cells (baculovirus)
# Experiment Summary: Inhibitory activity of the compounds against PDE 4B (fluorescence polarization, Transcreener AMP2/GMP2)
# Assay type: biochemical
# Particulars: recombinant human PDE4B (aa 305-end, GST tag); 1 μM cAMP; 1 hour at room temperature
# Procedure: Inhibitory activity of the compounds against PDE 4B The assay is based on the fluorescence polarization measuring AMP/GMP production as a result of the enzyme activity by displacement of Tracer binding to the AMP/GMP antibody. […] vi) The reaction was terminated by adding detecting mixture (Transcreener® AMP^2/GMP^2 antibody and AMP^2/GMP^2 AlexaFluor 633 tracer) and incubated for 90 minutes with gentle mixing. The measurement range of fluorescence polarization is Ex/Em=620/688. […]
pIC50: −log10 of the molar value.
Decision: pIC50 compared against 8; not below it gives yes, below it gives no.

Compound	Test Target	Class Assignment
CCOc1cc([C@@H](CS(C)(=O)=O)n2c(=O)[nH]c3cc(-c4nnccc4C)ccc32)ccc1OC [WX027]	Recombinant human PDE4B (Homo sapiens)	no
CCOc1cc([C@@H](CS(C)(=O)=O)n2c(=O)n(Cc3ccccc3F)c3cc(Br)ccc32)ccc1OC [WX064]	Recombinant human PDE4B (Homo sapiens)	yes
CCOc1cc([C@@H](CS(C)(=O)=O)n2c(=O)[nH]c3cc(C(=O)O)ccc32)ccc1OC [WX034]	Recombinant human PDE4B (Homo sapiens)	no
CCOc1cc([C@@H](CS(C)(=O)=O)n2c(=O)[nH]c3c(-c4ccccc4)cccc32)ccc1OC [WX090]	Recombinant human PDE4B (Homo sapiens)	yes
CCOc1cc([C@@H](CS(C)(=O)=O)n2c(=O)n(CCO)c3cc(F)cc(F)c32)ccc1OC [WX059]	Recombinant human PDE4B (Homo sapiens)	no
CCOc1cc([C@@H](CS(C)(=O)=O)n2c(=O)n(C)c3cc(F)cc(F)c32)ccc1OC [WX057]	Recombinant human PDE4B (Homo sapiens)	no
CCOc1cc([C@@H](CS(C)(=O)=O)n2c(=O)[nH]c3c(-c4ccccc4F)cccc32)ccc1OC [WX087]	Recombinant human PDE4B (Homo sapiens)	yes
CCOc1cc([C@@H](CS(C)(=O)=O)n2c(=O)[nH]c3ccccc32)ccc1OC [WX010]	Recombinant human PDE4B (Homo sapiens)	no
CCOC(=O)c1cccc2c1[nH]c(=O)n2[C@H](CS(C)(=O)=O)c1ccc(OC)c(OCC)c1 [WX098]	Recombinant human PDE4B (Homo sapiens)	no
CCOc1cc([C@@H](CS(C)(=O)=O)n2c(=O)n(CCO)c3cc(C(F)(F)F)ccc32)ccc1OC [WX056]	Recombinant human PDE4B (Homo sapiens)	yes
CCOc1cc([C@@H](CS(C)(=O)=O)n2c(=O)[nH]c3c(-c4ccc(F)cc4)cccc32)ccc1OC [WX089]	Recombinant human PDE4B (Homo sapiens)	yes
CCOc1cc([C@@H](CS(C)(=O)=O)n2c(=O)[nH]c3c(C4=CCOCC4)cccc32)ccc1OC [WX080]	Recombinant human PDE4B (Homo sapiens)	yes
CCOc1cc([C@@H](CS(C)(=O)=O)n2c(=O)n(Cc3ccc(F)cc3)c3cc(Br)ccc32)ccc1OC [WX066]	Recombinant human PDE4B (Homo sapiens)	yes
CCOc1cc([C@@H](CS(C)(=O)=O)n2c(=O)[nH]c3c(Cc4ccccc4F)cccc32)ccc1OC [WX094]	Recombinant human PDE4B (Homo sapiens)	yes
CCOc1cc([C@@H](CS(C)(=O)=O)n2c(=O)[nH]c3c(-c4cccc(F)c4)cccc32)ccc1OC [WX088]	Recombinant human PDE4B (Homo sapiens)	yes
CCOc1cc([C@@H](CS(C)(=O)=O)n2c(=O)[nH]c3c(Cl)cccc32)ccc1OC [WX008]	Recombinant human PDE4B (Homo sapiens)	no
CCOc1cc([C@@H](CS(C)(=O)=O)n2c(=O)[nH]c3cc(-c4nccnc4C4CC4)ccc32)ccc1OC [WX030]	Recombinant human PDE4B (Homo sapiens)	yes
CCOc1cc([C@@H](CS(C)(=O)=O)n2c(=O)[nH]c3cc(-c4ccccc4OCC)ccc32)ccc1OC [WX024]	Recombinant human PDE4B (Homo sapiens)	yes
CCOc1cc([C@@H](CS(C)(=O)=O)n2c(=O)n(CC)c3cc(-c4ccccc4F)ccc32)ccc1OC [WX069]	Recombinant human PDE4B (Homo sapiens)	yes
CCOc1cc(C(CS(C)(=O)=O)n2c(=O)[nH]c3cc(-c4ccccc4F)ccc32)ccc1OC(F)F (stereo not shown) [WX075]	Recombinant human PDE4B (Homo sapiens)	yes
CCOc1cc([C@@H](CS(C)(=O)=O)n2c(=O)[nH]c3c(-c4ncccc4F)cccc32)ccc1OC [WX097]	Recombinant human PDE4B (Homo sapiens)	yes
CCOc1cc([C@@H](CS(C)(=O)=O)n2c(=O)[nH]c3c(C4CC4)cccc32)ccc1OC [WX091]	Recombinant human PDE4B (Homo sapiens)	yes
CCOc1cc([C@@H](CS(C)(=O)=O)n2c(=O)[nH]c3cc(-c4cccc(F)c4)ccc32)ccc1OC [WX012]	Recombinant human PDE4B (Homo sapiens)	yes
CCOc1cc([C@@H](CS(C)(=O)=O)n2c(=O)n(C3CC3)c3cc(C(F)(F)F)ccc32)ccc1OC [WX022]	Recombinant human PDE4B (Homo sapiens)	no
C=C(C)c1cccc2c1[nH]c(=O)n2[C@H](CS(C)(=O)=O)c1ccc(OC)c(OCC)c1 [WX092]	Recombinant human PDE4B (Homo sapiens)	yes
CCOc1cc([C@@H](CS(C)(=O)=O)n2c(=O)[nH]c3c(-n4cccn4)cccc32)ccc1OC [WX084]	Recombinant human PDE4B (Homo sapiens)	no

These data points were gathered from patent US10532986B2.
